Target System: Toll-like receptor 2 (Homo sapiens) (UniProt O60603)
Sequence (O60603 whole entry): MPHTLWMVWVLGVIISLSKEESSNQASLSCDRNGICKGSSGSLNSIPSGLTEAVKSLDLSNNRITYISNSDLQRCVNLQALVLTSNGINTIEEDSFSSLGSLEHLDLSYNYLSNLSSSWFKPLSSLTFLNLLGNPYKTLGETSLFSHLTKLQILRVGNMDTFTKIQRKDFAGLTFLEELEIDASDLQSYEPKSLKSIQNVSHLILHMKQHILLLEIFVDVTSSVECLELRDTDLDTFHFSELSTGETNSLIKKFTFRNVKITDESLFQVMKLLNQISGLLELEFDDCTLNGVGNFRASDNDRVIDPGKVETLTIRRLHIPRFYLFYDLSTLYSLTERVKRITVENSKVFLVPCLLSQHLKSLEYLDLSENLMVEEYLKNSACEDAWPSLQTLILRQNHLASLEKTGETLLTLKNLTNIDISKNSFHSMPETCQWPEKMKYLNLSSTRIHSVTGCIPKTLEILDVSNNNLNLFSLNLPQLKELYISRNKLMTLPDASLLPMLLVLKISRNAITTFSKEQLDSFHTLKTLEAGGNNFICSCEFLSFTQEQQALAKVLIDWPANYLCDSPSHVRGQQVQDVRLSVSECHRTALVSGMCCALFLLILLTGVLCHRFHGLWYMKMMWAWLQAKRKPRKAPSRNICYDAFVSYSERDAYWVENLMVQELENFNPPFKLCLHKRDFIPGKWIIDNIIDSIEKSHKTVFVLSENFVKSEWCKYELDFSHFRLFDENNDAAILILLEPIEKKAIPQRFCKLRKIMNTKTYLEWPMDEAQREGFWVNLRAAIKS
Test Description: Antagonist activity at human TLR2 expressed in HEK-blue cells assessed as inhibition of Pam3CSK4-induced NF-kappaB activation-mediated SEAP production at 50 uM after 24 hrs by Quanti-blue-based assay
Assay type: cell-based
Endpoint Name: inhibition (%)

Below, each entry is followed by its recorded inhibition result.
| Structure As Smiles | Endpoint Name | Unit Tag | Measurement |
| --- | --- | --- | --- |
| CCOc1cccc(/C=N/c2cccc(C(=O)O)c2)c1O | inhibition | % | 19.4 |
| CCOc1cccc(/C=N/c2ccccc2C(=O)c2ccc(Cl)cc2)c1O | inhibition | % | 70.7 |
| Oc1ccc(/N=C/c2c(O)ccc3ccccc23)cc1 | inhibition | % | 0 |
| COc1ccc(/N=C/c2ccc(O)c(OC)c2)cc1 | inhibition | % | 0 |

1: CCOc1cccc(/C=N/c2ccccc2C(=O)c2ccccc2)c1O
2: COc1cccc(/C=N/c2ccc(-c3ccccc3)cc2)c1
## Task # query: argmin of inhibition over 1 and 2 Indicate your choice by writing its label.
## Result 2

* * *

Target System: Toll-like receptor 2 (Homo sapiens) (UniProt O60603)
Test Description: Antagonist activity at human TLR2 expressed in HEK-blue cells assessed as inhibition of Pam3CSK4-induced NF-kappaB activation-mediated SEAP production at 50 uM after 24 hrs by Quanti-blue-based assay
Format: cell-based
Endpoint Name: inhibition (%)

| Structure As Smiles | inhibition [%] |
| --- | --- |
| C(=N\c1ccc(-c2ccccc2)cc1)/c1cccc2ccccc12 | 0 |
| COc1cccc(CNc2ccccc2C(=O)c2ccc(Cl)cc2)c1O | 19.2 |
| COc1cc(/C=N/c2ccc(O)cc2)ccc1O | 62.7 |
| Cc1c(/N=C/c2ccc(C(F)(F)F)cc2)cccc1C(=O)O | 0 |

A: COc1cccc(/C=N/c2ccccc2C(=O)c2ccc(Cl)cc2)c1O
B: COc1ccc(/N=C/c2cccc(OC)c2O)cc1
## Task # query: argmin of inhibition over A and B Indicate your choice by writing its label.
## Result B
(B: 45.6%, A: 95.1%)

* * *

Target System: UniProt O60603
Test Description: Antagonist activity at human TLR2 expressed in HEK-blue cells assessed as inhibition of Pam3CSK4-induced NF-kappaB activation-mediated SEAP production at 25 uM after 24 hrs by Quanti-blue-based assay
Type: cell-based
Endpoint Name: inhibition (%)

Below, each entry is followed by its recorded inhibition result.
| Structure As Smiles | Measurement |
| --- | --- |
| CCOc1cccc(/C=N/c2cccc(C(=O)O)c2)c1O | 6.93 |
| CCOc1cccc(/C=N/c2ccccc2C(=O)c2ccccc2)c1O | 3.59 |
| COc1cc(/C=N/c2cc(N)cc(C(=O)O)c2)ccc1O | 0 |
| COc1cc(/C=N/c2ccc(-c3ccccc3)cc2)ccc1O | 2.39 |

A: COc1ccc(/N=C/c2cccc(O)c2O)cc1
B: Oc1ccc(/N=C/C=C/c2ccccc2)cc1
C: COc1ccc(/N=C/c2cccc3ccccc23)cc1
D: Cc1c(/N=C/c2ccc(C(F)(F)F)cc2)cccc1C(=O)O
E: CCOc1cccc(/C=N/c2cccc(C)c2C(=O)O)c1O
## Task Order by inhibition, ascending. # output: labels, in the requested order
## Result D, E, C, A, B
(D: 0%, E: 2.39%, C: 5.21%, A: 17%, B: 27.5%)

a: O=C(O)c1cccc(/N=C/c2cccc(O)c2O)c1
b: COc1cccc(/N=C/c2ccc(C(F)(F)F)cc2)c1
## Task # query: argmin of inhibition over a and b Indicate your choice by writing its label.
## Result a
